Test system: 282377-053-R-J1-PDC complex spheroid viability;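 also: spheroids exposed to agents for seven days before readout; luminescence viability as percent of DMSO vehicle control wells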
Experiment: Anticancer human tumor 282377-053-R-J1-PDC patient-derived colon adenocarcinoma cell line growth inhibition [RAS]
Details: second compound 1 µM; first compound 0.0949 µM; active compounds read low
Measured viability, T/C accompanies every entry in the list below.
measured_metric: viability, T/C (%)

CC1(C)CCC(Nc2ncc(C(F)(F)F)c(-c3c[nH]c4c(P(C)(C)=O)c(C#N)ccc34)n2)CN1 (centres undefined) + C#Cc1c(F)ccc2cc(O)cc(-c3ncc4c(N5CC6CCC(C5)N6)nc(OCC56CCCN5CC(F)C6)nc4c3F)c12    74.9
CC1(C)CCC(Nc2ncc(C(F)(F)F)c(-c3c[nH]c4c(P(C)(C)=O)c(C#N)ccc34)n2)CN1 (centres undefined) + C=CC(=O)N1CCN(c2nc(OCC3CCCN3C)nc3c(F)c(-c4nc(N)cc(C)c4C(F)(F)F)c(Cl)cc23)C(C)C1    67
CCc1c2c(nc3ccc(O)cc13)-c1cc3c(c(=O)n1C2)COC(=O)[C@]3(O)CC + C#Cc1c(F)ccc2cc(O)cc(-c3ncc4c(N5CC6CCC(C5)N6)nc(OCC56CCCN5CC(F)C6)nc4c3F)c12    80.1
CCc1c2c(nc3ccc(O)cc13)-c1cc3c(c(=O)n1C2)COC(=O)[C@]3(O)CC + C=CC(=O)N1CCN(c2nc(OCC3CCCN3C)nc3c(F)c(-c4nc(N)cc(C)c4C(F)(F)F)c(Cl)cc23)C(C)C1    95.2

src = PubChem BioAssay AID2060905
